# tgt: (NPNA)3 (Plasmodium falciparum)
# test-protocol: BLI, target on sensor
pKd: −log10 of the molar value.

# binder, pKd
records = [
    ("AB-007068 (antibody, V domains shown) VH: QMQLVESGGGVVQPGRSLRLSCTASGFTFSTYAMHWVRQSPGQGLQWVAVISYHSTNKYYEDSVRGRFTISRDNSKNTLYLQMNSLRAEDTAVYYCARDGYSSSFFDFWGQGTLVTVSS VL: DIQMTQSPSTLSASVGDRVAITCRASQSISRWLAWYQQQPGKAPKLLMSLASVLESGVPSRFSGSGSGTEFTLTISSLQPDDFATYYCQHYNSYFVTFGQGTKVEIK", 9.15),
    ("AB-007029 (antibody, V domains shown) VH: QVQLVESGGGVVQPGRSLRLSCTASGFTFSTYAMHWVRQSPGQGLQWVAVISYHSTNKYYEDSVRGRFTISRDNSKNTLYLQMNSLRAEDTAVYYCARDGYSSSFFDFWGQGTLVTVSS VL: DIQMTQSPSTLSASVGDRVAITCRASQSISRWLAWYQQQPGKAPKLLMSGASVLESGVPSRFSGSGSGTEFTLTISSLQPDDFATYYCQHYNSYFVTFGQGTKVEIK", 9.78),
    ("AB-007059 (antibody, V domains shown) VH: QMQLVESGGGVVQPGRSLRLSCTASGFTFSTYAMHWVRQSPGQGLQWVAVISYHSTNKYYEDSVRGRFTISRDNSKNTLYLQMNSLRAEDTAVYYCARDGYSSTFFDFWGQGTLVTVSS VL: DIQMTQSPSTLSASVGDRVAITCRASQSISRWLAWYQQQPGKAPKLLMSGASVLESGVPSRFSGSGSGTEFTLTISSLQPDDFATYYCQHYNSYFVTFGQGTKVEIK", 9.32),
    ("AB-007043 (antibody, V domains shown) VH: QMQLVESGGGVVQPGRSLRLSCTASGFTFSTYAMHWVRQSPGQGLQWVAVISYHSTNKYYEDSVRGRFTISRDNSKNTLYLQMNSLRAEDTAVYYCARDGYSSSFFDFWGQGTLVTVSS VL: DIQMTQSPSTLSASVGDRVAITCRASQSISRWLAWYQQQPGKAPKLLMSGASVLEDGVPSRFSGSGSGTEFTLTISSLQPDDFATYYCQHYNSYFVTFGQGTKVEIK", 11.47),
    ("AB-007073 (antibody, V domains shown) VH: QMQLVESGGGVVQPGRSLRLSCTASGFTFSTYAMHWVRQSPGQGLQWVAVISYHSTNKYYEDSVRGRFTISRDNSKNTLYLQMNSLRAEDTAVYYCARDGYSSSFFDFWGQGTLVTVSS VL: DIQMTQSPSTLSASVGDRVAITCRASQSISRWLAWYQQQPGKAPKLLMSGASVLESGVPSRFSGSGSGTEFTLTISSLQPDDFATYYCQHYNSHFVTFGQGTKVEIK", 9.49),
    ("AB-007052 (antibody, V domains shown) VH: QMQLVESGGGVVQPGRSLRLSCTASGFTFSTYAMHWVRQSPGQGLQWVAVISYHSNNKYYEDSVRGRFTISRDNSKNTLYLQMNSLRAEDTAVYYCARDGYSSSFFDFWGQGTLVTVSS VL: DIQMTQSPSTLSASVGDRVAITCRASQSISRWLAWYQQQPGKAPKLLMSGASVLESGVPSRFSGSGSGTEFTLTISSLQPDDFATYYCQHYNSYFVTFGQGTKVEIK", 10.77),
    ("AB-007056 (antibody, V domains shown) VH: QMQLVESGGGVVQPGRSLRLSCTASGFTFSTYAMHWVRQSPGQGLQWVAVISYHSTNKYYEDSVRGRFTISRDNSKNTLYLQMNSLRAEDTAVYYCARDGYQSSFFDFWGQGTLVTVSS VL: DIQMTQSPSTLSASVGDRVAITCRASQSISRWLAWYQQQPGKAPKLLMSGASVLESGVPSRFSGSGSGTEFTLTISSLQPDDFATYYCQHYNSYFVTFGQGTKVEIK", 9.58),
    ("AB-007028 (antibody, V domains shown) VH: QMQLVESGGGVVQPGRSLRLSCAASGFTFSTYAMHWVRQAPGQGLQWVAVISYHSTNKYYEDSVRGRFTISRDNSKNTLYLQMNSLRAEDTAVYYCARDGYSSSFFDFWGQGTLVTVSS VL: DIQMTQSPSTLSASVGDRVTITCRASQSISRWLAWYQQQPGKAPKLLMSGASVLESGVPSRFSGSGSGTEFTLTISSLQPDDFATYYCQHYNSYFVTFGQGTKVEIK", 10.38),
    ("AB-007062 (antibody, V domains shown) VH: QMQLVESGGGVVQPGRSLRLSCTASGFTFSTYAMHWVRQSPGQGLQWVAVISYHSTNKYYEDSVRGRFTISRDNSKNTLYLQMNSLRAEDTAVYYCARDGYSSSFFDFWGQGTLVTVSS VL: DIQMTQSPSTLSASVGDRVAITCRASQSISSWLAWYQQQPGKAPKLLMSGASVLESGVPSRFSGSGSGTEFTLTISSLQPDDFATYYCQHYNSYFVTFGQGTKVEIK", 11.10),
    ("AB-007053 (antibody, V domains shown) VH: QMQLVESGGGVVQPGRSLRLSCTASGFTFSTYAMHWVRQSPGQGLQWVAVISYHSTQKYYEDSVRGRFTISRDNSKNTLYLQMNSLRAEDTAVYYCARDGYSSSFFDFWGQGTLVTVSS VL: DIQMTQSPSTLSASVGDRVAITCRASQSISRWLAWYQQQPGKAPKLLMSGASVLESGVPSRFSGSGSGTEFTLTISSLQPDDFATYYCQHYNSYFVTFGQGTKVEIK", 9.26),
]

Source of measurements: patent US20220195023A1
